Test system: K562
METHOD: NCI tumour cell line growth inhibition, 48 h
The source made the active and inactive calls. Rule as the data show it: active = GI50 up to about 1.1 µM and inactive = higher.
Bench note: report the call from t = active, f = inactive

COMPOUND | QUALITATIVE LABEL
Cc1nc2c(cc1C(=O)NN)c(=O)n(C)c(=O)n2C | f
CC(C)=NN/C(=N\c1ccc(Cl)cc1)NS(=O)(=O)c1cc(Cl)c(Oc2ccc([N+](=O)[O-])cc2Cl)c(Cl)c1 | f

How was O=C(c1ccccc1)C(C(=O)c1ccccc1)c1nc2ccccc2sc1=O classified in this test? f

Same thing, different compound: Cc1csc2nc(-c3cc([N+](=O)[O-])c(Cl)cc3Cl)c(/C=N/N=C(N)N)n12 f

Same thing, different compound: Cc1nnc([C@@]2(C)CC[C@H]3[C@@H](CC=C4C[C@@H](O)CC[C@@]43C)[C@@H]2CC#N)o1 f

---

Test system: NCI-H522
METHOD: NCI tumour cell line growth inhibition, 48 h
Activity calls are given as the source filed them. No stated cut-off is given here; in the data, active = GI50 up to about 1.1 µM and inactive = higher.
Bench note: report the call from true for active, false for inactive

MOLECULE | ASSAY SYSTEM | QUALITATIVE LABEL
O=C(CSc1nnc(-c2ccc(/N=C\c3ccc(Cl)cc3)cc2)o1)Nc1ccc(Cl)cc1Cl | NCI-H522 | false

Continue with the molecule presented below.
How was COC(=O)[C@H](Cc1ccccc1)NC(=O)c1ccc(CNC(=O)/C=C/c2csc(-c3ccccc3)n2)cc1 classified in this test? false

---

Tested on: CAKI-1
METHOD: NCI tumour cell line growth inhibition, 48 h
Calls of active or inactive are those of the source. Cut-off read from the data, not from the text of the source: active = GI50 up to about 1.1 µM and inactive = higher.
Bench note: report the call from active, inactive

MOLECULE | QUALITATIVE LABEL
COC(=O)c1c/c(=N\NC(=O)CC(=O)Nc2ccccc2Cl)c2ccccc2o1 | inactive
C/C(=N\Nc1ccccc1)c1sc(-c2nc(C)c(/C(C)=N/Nc3ccccc3)s2)nc1C | inactive
C=CC1OC(CCCOC(=O)C(C)(C)C)O[C@@H]1CC (some centres not stated) | inactive
O[C@@]1(C#Cc2ccc3c(c2)OCO3)CCC[C@H]1NCc1ccccc1 | inactive
C(=C\c1ccccc1)/C=N/c1nc2cc3sc(/N=C/C=C/c4ccccc4)nc3cc2s1 | inactive
FC(F)(F)c1n[nH]c(SCc2ccc(Cl)cc2)n1 | inactive
Nc1ncnc2c1ncc(=O)n2C1CC(O)C(CO)O1 (configuration not stated) | inactive
N/N=C1\c2ccccc2C2/C(=N\N)c3ccccc3C12 (configuration not stated) | inactive
c1cc2cc(Cc3ccc4[nH]ccc4c3)ccc2[nH]1 | inactive
CC(=O)Nc1cccc(N2C(=O)/C(=C\c3cccc(Oc4ccccc4)c3)SC2c2ccccc2)c1 (configuration not stated) | inactive

How was COP(=N[Si](C)(C)C)(OC)OC classified in this test? inactive

Same thing, different molecule: c1ccc(C(Oc2noc3ccccc23)c2ccccc2)cc1 inactive

Same thing, different molecule: O=C(C[n+]1ccccc1)N/N=C(/CCC(=O)N(Cc1ccccc1)Cc1ccccc1)CC(=O)c1ccccc1 inactive

Same thing, different molecule: N#CC1(C#N)N[C@@H](c2ccsc2)[C@H]2C(=O)N(c3ccccc3)C(=O)[C@H]21 inactive

Same thing, different molecule: CS(=O)(=O)N1CC(CI)c2ccc(O)cc21 (configuration not stated) inactive

---

# GI50 per entry
Tested on: CCRF-CEM
METHOD: NCI tumour cell line growth inhibition, 48 h
The source made the active and inactive calls. Cut-off read from the data, not from the text of the source: active = GI50 up to about 1.1 µM and inactive = higher.

Sample records with GI50:
MOLECULE | GI50
CCOC(=O)c1nc2ccc(C(F)(F)F)cc2nc1NCc1ccc(OC)c(OC)c1 | 65.6 µM (inactive)
C=C1C(=O)OC2CC(=C)C3CC=C(C)C3CC12 (stereo unspecified) | 8.24 µM (inactive)
Cn1c(=O)c(/N=N/c2c(=O)n(C)c(=O)n3c2[nH]c2ccccc23)c2[nH]c3ccccc3n2c1=O | 8.63 µM (inactive)
Fc1ccccc1C1CC(c2ccc3ccccc3c2)=Nc2ccccc2S1 (stereo unspecified) | > 100 µM (inactive)
c1ccc2c(c1)c1c3c(c4c(n32)=NCCN4)CCC1 | 53.1 µM (inactive)

Query for CCRF-CEM: what GI50 does the record show for NCCCNCc1c2ccccc2c(CNCCCN)c2ccccc12 ? 16.9 µM (inactive)

Same thing, different molecule: CN1C[C@H]2[C@@H](C1=O)[C@H](c1ccc([N+](=O)[O-])cc1)ON2C > 100 µM (inactive)
